TARGET_DESC: Carbonic anhydrase 2 (Homo sapiens, UniProt P00918)
ASSAY_PROTOCOL: Inhibition of recombinant human carbonic anhydrase 2 preincubated for 15 mins by phenol red dye based stopped flow CO2 hydration assay
pKi: −log10 of the molar value.
Label y when pKi >= 7; otherwise n.

CCOC(=O)CN1C(=O)/C(=N\Nc2ccc(S(N)(=O)=O)cc2)c2cc(Br)ccc21: n
NS(=O)(=O)c1ccc(N/N=C2\C(=O)N(Cc3ccccc3)c3ccc(Cl)cc32)cc1: y
NS(=O)(=O)c1ccc(N/N=C2\C(=O)Nc3ccc(Cl)cc32)cc1 [GW280670X]: y

###

Below, each of the compounds is paired with its reported inhibition of growth at 10 µM value.
Test system: NCI/ADR-RES
ASSAY_PROTOCOL: Growth inhibition of human NCI/ADR-RES cells at 10 uM incubated for 48 hrs by sulforhodamine B assay relative to control
Assay type: functional
CONDITION_SUMMARY: read-out: GI
OBSERVED_PROPERTY: inhibition of growth at 10 µM (%)

CCCN1C(=O)/C(=N\Nc2ccc(S(N)(=O)=O)cc2)c2cc(Br)ccc21: 16
CCOC(=O)CN1C(=O)/C(=N\Nc2ccc(S(N)(=O)=O)cc2)c2cc(Br)ccc21: 10
NS(=O)(=O)c1ccc(N/N=C2\C(=O)N(Cc3ccccc3)c3ccc(Cl)cc32)cc1: 18
NS(=O)(=O)c1ccc(N/N=C2\C(=O)N(Cc3ccccc3)c3ccccc32)cc1: 20
NS(=O)(=O)c1ccc(N/N=C2\C(=O)N(Cc3ccccc3)c3ccc(Br)cc32)cc1: 13

###

Below, each of the molecules is paired with its reported inhibition of growth at 10 µM value.
Test system: RPMI-8226
ASSAY_PROTOCOL: Growth inhibition of human RPMI8226 cells at 10 uM incubated for 48 hrs by sulforhodamine B assay relative to control
Assay type: functional
CONDITION_SUMMARY: RPMI-8226, 48 h, read-out: GI
OBSERVED_PROPERTY: inhibition of growth at 10 µM

NS(=O)(=O)c1ccc(N/N=C2\C(=O)N(Cc3ccccc3)c3ccc(Cl)cc32)cc1: 10%
NS(=O)(=O)c1ccc(N/N=C2\C(=O)N(Cc3ccccc3)c3ccc(Br)cc32)cc1: 10%
NS(=O)(=O)c1ccc(N/N=C2\C(=O)N(Cc3ccccc3)c3ccccc32)cc1: 38%
CCOC(=O)CN1C(=O)/C(=N\Nc2ccc(S(N)(=O)=O)cc2)c2cc(Cl)ccc21: 11%
CCOC(=O)CN1C(=O)/C(=N\Nc2ccc(S(N)(=O)=O)cc2)c2cc(Br)ccc21: 21%
CCCN1C(=O)/C(=N\Nc2ccc(S(N)(=O)=O)cc2)c2cc(Br)ccc21: 26%

###

Tested on: HCT-116
ASSAY_PROTOCOL: Growth inhibition of human HCT116 cells at 10 uM incubated for 48 hrs by sulforhodamine B assay relative to control
Assay type: functional
CONDITION_SUMMARY: HCT-116, 48 h, read-out: GI
Below, each of the molecules is paired with its reported inhibition of growth at 10 µM value.
OBSERVED_PROPERTY: inhibition of growth at 10 µM (%)

CCOC(=O)CN1C(=O)/C(=N\Nc2ccc(S(N)(=O)=O)cc2)c2cc(Cl)ccc21: 10
NS(=O)(=O)c1ccc(N/N=C2\C(=O)N(Cc3ccccc3)c3ccc(Cl)cc32)cc1: 31
NS(=O)(=O)c1ccc(N/N=C2\C(=O)N(Cc3ccccc3)c3ccc(Br)cc32)cc1: 24
CCOC(=O)CN1C(=O)/C(=N\Nc2ccc(S(N)(=O)=O)cc2)c2cc(Br)ccc21: 86
NS(=O)(=O)c1ccc(N/N=C2\C(=O)N(Cc3ccccc3)c3ccccc32)cc1: 28
CCCN1C(=O)/C(=N\Nc2ccc(S(N)(=O)=O)cc2)c2cc(Br)ccc21: 30

###

TARGET_DESC: UniProt P00915
Sequence (P00915 whole entry): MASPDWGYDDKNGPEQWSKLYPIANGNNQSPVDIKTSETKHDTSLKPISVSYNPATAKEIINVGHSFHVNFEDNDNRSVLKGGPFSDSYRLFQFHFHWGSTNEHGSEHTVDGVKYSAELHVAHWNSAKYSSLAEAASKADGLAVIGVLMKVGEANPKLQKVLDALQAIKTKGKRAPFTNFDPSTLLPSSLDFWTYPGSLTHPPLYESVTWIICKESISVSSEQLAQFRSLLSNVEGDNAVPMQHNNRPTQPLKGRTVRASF
ASSAY_PROTOCOL: Inhibition of recombinant human carbonic anhydrase 1 preincubated for 15 mins by phenol red dye based stopped flow CO2 hydration assay
Below, each of the compounds is paired with its reported Ki value.
OBSERVED_PROPERTY: Ki (µM)

NS(=O)(=O)c1ccc(N/N=C2\C(=O)Nc3ccccc32)cc1: 0.467
NS(=O)(=O)c1ccc(N/N=C2\C(=O)N(Cc3ccccc3)c3ccc(Cl)cc32)cc1: 4.83
NS(=O)(=O)c1ccc(N/N=C2\C(=O)Nc3ccc(Cl)cc32)cc1 [GW280670X]: 1.81
NS(=O)(=O)c1ccc(N/N=C2\C(=O)Nc3ccc(Br)cc32)cc1: 3.71

###

TARGET_DESC: Carbonic anhydrase 9 (Homo sapiens, UniProt Q16790)
ASSAY_PROTOCOL: Inhibition of human recombinant carbonic anhydrase 9 by stopped flow CO2 hydration assay
OBSERVED_PROPERTY: Ki (nM)

NS(=O)(=O)c1ccc(CC/N=C2\NC(=O)/C(=C3/C(=O)Nc4ccc(F)cc43)S2)cc1: 287

###

TARGET_DESC: Carbonic anhydrase 9 (Homo sapiens)
ASSAY_PROTOCOL: Inhibition of recombinant human carbonic anhydrase 9 preincubated for 15 mins by phenol red dye based stopped flow CO2 hydration assay
pKi: −log10 of the molar value.
Below, each of the compounds is paired with its reported pKi value.
OBSERVED_PROPERTY: pKi

CCOC(=O)CN1C(=O)/C(=N\Nc2ccc(S(N)(=O)=O)cc2)c2ccccc21: 7.80
NS(=O)(=O)c1ccc(N/N=C2\C(=O)N(Cc3ccccc3)c3ccc(Br)cc32)cc1: 7.22
NS(=O)(=O)c1ccc(N/N=C2\C(=O)N(Cc3ccccc3)c3ccc(Cl)cc32)cc1: 7.71
CCCN1C(=O)/C(=N\Nc2ccc(S(N)(=O)=O)cc2)c2cc(Cl)ccc21: 7.88
NS(=O)(=O)c1ccc(N/N=C2\C(=O)Nc3ccc(Br)cc32)cc1: 7.61

###

System: NCI-H522
ASSAY_PROTOCOL: Growth inhibition of human NCI-H522 cells at 10 uM incubated for 48 hrs by sulforhodamine B assay relative to control
Format: functional
CONDITION_SUMMARY: NCI-H522, 48 h, read-out: GI
OBSERVED_PROPERTY: inhibition of growth at 10 µM

NS(=O)(=O)c1ccc(N/N=C2\C(=O)N(Cc3ccccc3)c3ccccc32)cc1: 46%
NS(=O)(=O)c1ccc(N/N=C2\C(=O)N(Cc3ccccc3)c3ccc(Cl)cc32)cc1: 31%
CCOC(=O)CN1C(=O)/C(=N\Nc2ccc(S(N)(=O)=O)cc2)c2cc(Br)ccc21: 29%
NS(=O)(=O)c1ccc(N/N=C2\C(=O)N(Cc3ccccc3)c3ccc(Br)cc32)cc1: 29%
CCOC(=O)CN1C(=O)/C(=N\Nc2ccc(S(N)(=O)=O)cc2)c2cc(Cl)ccc21: 18%
CCCN1C(=O)/C(=N\Nc2ccc(S(N)(=O)=O)cc2)c2cc(Br)ccc21: 31%

###

Test system: MOLT-4
ASSAY_PROTOCOL: Growth inhibition of human MOLT4 cells at 10 uM incubated for 48 hrs by sulforhodamine B assay relative to control
Assay type: functional
CONDITION_SUMMARY: MOLT-4, 48 h, read-out: GI
Below, each of the compounds is paired with its reported inhibition of growth at 10 µM value.
OBSERVED_PROPERTY: inhibition of growth at 10 µM

NS(=O)(=O)c1ccc(N/N=C2\C(=O)N(Cc3ccccc3)c3ccc(Cl)cc32)cc1: 28%
CCCN1C(=O)/C(=N\Nc2ccc(S(N)(=O)=O)cc2)c2cc(Br)ccc21: 12%
CCOC(=O)CN1C(=O)/C(=N\Nc2ccc(S(N)(=O)=O)cc2)c2cc(Br)ccc21: 23%
NS(=O)(=O)c1ccc(N/N=C2\C(=O)N(Cc3ccccc3)c3ccc(Br)cc32)cc1: 21%
CCOC(=O)CN1C(=O)/C(=N\Nc2ccc(S(N)(=O)=O)cc2)c2cc(Cl)ccc21: 21%

###

Test system: NCI-H460
ASSAY_PROTOCOL: Growth inhibition of human NCI-H460 cells at 10 uM incubated for 48 hrs by sulforhodamine B assay relative to control
Type: functional
CONDITION_SUMMARY: NCI-H460, 48 h, read-out: GI
OBSERVED_PROPERTY: inhibition of growth at 10 µM (%)

NS(=O)(=O)c1ccc(N/N=C2\C(=O)N(Cc3ccccc3)c3ccccc32)cc1: 20
CCOC(=O)CN1C(=O)/C(=N\Nc2ccc(S(N)(=O)=O)cc2)c2cc(Br)ccc21: 56
NS(=O)(=O)c1ccc(N/N=C2\C(=O)N(Cc3ccccc3)c3ccc(Br)cc32)cc1: 20
NS(=O)(=O)c1ccc(N/N=C2\C(=O)N(Cc3ccccc3)c3ccc(Cl)cc32)cc1: 35
CCCN1C(=O)/C(=N\Nc2ccc(S(N)(=O)=O)cc2)c2cc(Br)ccc21: 22

###

Below, each of the molecules is paired with its reported Ki value.
TARGET_DESC: Carbonic anhydrase 9 (Homo sapiens, UniProt Q16790)
ASSAY_PROTOCOL: Inhibition of recombinant human carbonic anhydrase 9 preincubated for 15 mins by phenol red dye based stopped flow CO2 hydration assay
OBSERVED_PROPERTY: Ki (µM)

CCN1C(=O)/C(=N\Nc2ccc(S(N)(=O)=O)cc2)c2cc(Br)ccc21: 0.042
CCN1C(=O)/C(=N\Nc2ccc(S(N)(=O)=O)cc2)c2cc(Cl)ccc21: 0.0084
NS(=O)(=O)c1ccc(N/N=C2\C(=O)N(Cc3ccccc3)c3ccccc32)cc1: 0.0277
CCCN1C(=O)/C(=N\Nc2ccc(S(N)(=O)=O)cc2)c2ccccc21: 0.0286
CN1C(=O)/C(=N\Nc2ccc(S(N)(=O)=O)cc2)c2ccccc21: 0.0094
CCCN1C(=O)/C(=N\Nc2ccc(S(N)(=O)=O)cc2)c2cc(Br)ccc21: 0.0558
NS(=O)(=O)c1ccc(N/N=C2\C(=O)Nc3ccc(Cl)cc32)cc1 [GW280670X]: 0.0083
CN1C(=O)/C(=N\Nc2ccc(S(N)(=O)=O)cc2)c2cc(Br)ccc21: 0.0401
CCOC(=O)CN1C(=O)/C(=N\Nc2ccc(S(N)(=O)=O)cc2)c2cc(Br)ccc21: 0.0654
CCN1C(=O)/C(=N\Nc2ccc(S(N)(=O)=O)cc2)c2ccccc21: 0.0258
NS(=O)(=O)c1ccc(N/N=C2\C(=O)Nc3ccccc32)cc1: 0.0155
CCOC(=O)CN1C(=O)/C(=N\Nc2ccc(S(N)(=O)=O)cc2)c2cc(Cl)ccc21: 0.0388
